biological target: ENO1 (Homo sapiens); test: Differential scanning fluorimetry; format: binding; conditions: read-out: apparent dissociation constant (Kd app); DSF, ENO1
Sequence (P06733 whole entry): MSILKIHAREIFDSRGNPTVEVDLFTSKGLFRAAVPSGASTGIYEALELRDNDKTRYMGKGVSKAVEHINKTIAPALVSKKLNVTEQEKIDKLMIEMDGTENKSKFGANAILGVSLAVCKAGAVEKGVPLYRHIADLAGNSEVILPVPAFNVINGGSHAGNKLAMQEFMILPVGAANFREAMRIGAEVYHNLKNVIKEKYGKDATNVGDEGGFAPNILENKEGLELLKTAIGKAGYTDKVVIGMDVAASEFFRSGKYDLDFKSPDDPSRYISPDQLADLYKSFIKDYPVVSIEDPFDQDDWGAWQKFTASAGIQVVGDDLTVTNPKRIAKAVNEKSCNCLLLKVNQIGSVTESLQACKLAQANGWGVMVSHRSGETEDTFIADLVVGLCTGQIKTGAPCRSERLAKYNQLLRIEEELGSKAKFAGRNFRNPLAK
measured-endpoint: pKd
Just the number, please; pKd means minus log10 of the concentration in mol/L.

Report pKd for O=C(O)[C@@H](CO)OP(=O)(O)O [2PG, 2-phosphoglycerate] please. 3.53

Where do the numbers come from? From paper PMC10262665.
